assay: growth inhibition of ugtP-null S. aureus, primary screen, RN4220 ugtP deletion, OD600 (AID 1259309); conditions: 16 h, hits give high values;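 further: plate controls were untreated wells for no effect and antibiotic for full effect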
Among all 330,000 compounds or so, about 1,800 (0.55%) were called active. For the sample, actives were picked, then their nearest neighbours and some compounds at random.
measured metric: growth inhibition (%)
Give the value in % but do not write % after it.

Below: 5 molecules and their reported growth inhibition.
Input line: Tell me growth inhibition reported for CSc1ccc(C2=CC(=O)CC(c3ccc(F)cc3)C2)cc1 (stereo unspecified)
Output line: -1.01

Input line: Tell me growth inhibition reported for `Cc1nn(-c2ccccc2)c(C)c1C=NNC(=O)c1cc(-c2ccc(Br)s2)[nH]n1`
Output line: -11.7

Input line: Tell me growth inhibition reported for `C/[N+]([O-])=C\c1ccc([N+](=O)[O-])o1`
Output line: 96.9

Input line: Tell me growth inhibition reported for `OCCNc1nc(Nc2ccc(Cl)c(Cl)c2)nc2ccccc12`
Output line: -40.3

Input line: Tell me growth inhibition reported for `CC[C@@H](C)[C@@H]1CN([C@@H](C)CN2CCC[C@H]2CN2C(N)=NC[C@H]2C(C)C)C(=N)N1CCc1ccc(Cl)c(Cl)c1`
Output line: 100

Further cases:
Input line: Tell me growth inhibition reported for `COc1cc(NC=C2CC(=O)NC(C)=C2C#N)cc(OC)c1OC`
Output line: -2.01
